This section presents compounds with their documented IC50 values.
Target: recombinant SARS-Cov-2 M^pro (Severe acute respiratory syndrome coronavirus 2 (2019-nCoV) (SARS-CoV-2), UniProt P0DTD1)
Assay: biochemical
Conditions: read-out: IC50 (μM), inhibition of SARS-Cov-2 M^pro; Table 4
Your answer should be a plain number; it is taken to be in µM.

Task: What IC50 value was documented for this compound, N#Cc1[nH]c(=O)ccc1-c1cc(-c2cccc(Cl)c2)c(=O)n(-c2cccnc2)c1 [Compound 23] ?
Result: 10

---
Task: # input compound: N#Cc1cccc(-c2cc(-c3c[nH]c(=O)[nH]c3=O)cn(-c3cccnc3)c2=O)c1 [Compound 19] ; wanted: its IC50
Result: 10

Task: Also need O=c1[nH]cc(-c2cc(-c3cccc(Cl)c3)c(=O)n(-c3cccnc3)c2)c(=O)[nH]1 [Compound 8] , thanks.
Result: 6.38

Task: Please give the result for N#Cc1ccccc1-c1cc(-c2cccc(Cl)c2)c(=O)n(-c2ccc[n+]([O-])c2)c1 [Compound 10] too.
Result: 15.6

Task: Likewise for O=c1[nH]cc(-c2cc(-c3cc(F)c(F)c(OCc4ccccc4F)c3)c(=O)n(-c3cccnc3)c2)c(=O)[nH]1 [Compound 45] ?
Result: 0.03

Task: Now consider CC(C)CCOc1cc(Cl)cc(-c2cc(-c3c[nH]c(=O)[nH]c3=O)cn(-c3cccnc3)c2=O)c1 [Compound 26] .
Result: 0.19

Task: Moving on to N#Cc1ccccc1-c1cc(-c2cc(Cl)cc(OCc3ccccc3)c2)c(=O)n(-c2cccnc2)c1 [Compound 14]
Result: 0.28

---

Molecular target: recombinant SARS-Cov-2 M^pro (Severe acute respiratory syndrome coronavirus 2 (2019-nCoV) (SARS-CoV-2))
Test: biochemical
Details: read-out: IC50 (μM), inhibition of SARS-CoV-2 M^pro; Table 1; 100 nM M^pro, triplicate; perampanel: fluorescence of compound interfered with assay
observed_property: IC50 (µM)
Your answer should be a plain number; it is taken to be in µM.

Task: # get_value(readout='IC50', item= COc1cc(Cl)cc(-c2cc(-c3c[nH]c(=O)[nH]c3=O)cn(-c3cccnc3)c2=O)c1 )
Result: 1.2

Task: Same question for Cc1cccc(COc2cc(Cl)cc(-c3cc(-c4c[nH]c(=O)[nH]c4=O)cn(-c4cccnc4)c3=O)c2)c1 please.
Result: 0.11

***
Task: Find the recorded IC50 belonging to N#Cc1ccccc1-c1cc(-c2cc(Cl)cc(OCCc3ccccc3)c2)c(=O)n(-c2cccnc2)c1 and report it.
Result: 0.51

Task: Field entry: O=c1[nH]cc(-c2cc(-c3cc(Cl)cc(OCc4ccccc4F)c3)c(=O)n(-c3cccnc3)c2)c(=O)[nH]1
Result: 0.024

Task: Then what about the compound CC(C)CCOc1cc(Cl)cc(-c2cc(-c3c[nH]c(=O)[nH]c3=O)cn(-c3cccnc3)c2=O)c1 ?
Result: 0.19

Task: Another compound to check: N#Cc1ccccc1-c1cc(-c2cccc(Cl)c2)c(=O)n(-c2cccnc2)c1
Result: 9.99

---

Tested on: infectious SARS-CoV-2 (isolate USA-WA1/2020)
Assay: Antiviral assay, cytopathic effect by MTT in Vero E6 cells
Format: cell-based
Conditions: Severe acute respiratory syndrome coronavirus 2, Vero C1008; Vero E6 cells, MOI 0.01, 72 h; NA = not active; read-out: EC50 MTT
observed_property: EC50
Phrase the answer as number then unit, nothing more needed.

Task: What EC50 value was documented for this compound, N#Cc1ccccc1-c1cc(-c2cc(Cl)cc(OCC3CC3)c2)c(=O)n(-c2cccnc2)c1 ?
Result: 2000 nM

Continuing:
Task: Need EC50, item CCCOc1cc(Cl)cc(-c2cc(-c3ccccc3C#N)cn(-c3cccnc3)c2=O)c1
Result: 2500 nM

---

Listing: IC50 of selected compounds
Biological target: recombinant SARS-Cov-2 M^pro (Severe acute respiratory syndrome coronavirus 2 (2019-nCoV) (SARS-CoV-2), UniProt P0DTD1)
Test: biochemical
Conditions: read-out: IC50 (μM), inhibition of SARS-Cov-2 M^pro; Table 4

Task: Look up IC50 for this compound: COc1cc(CCOc2cc(Cl)cc(-c3cc(-c4ccccc4C#N)cn(-c4cccnc4)c3=O)c2)cc(OC)c1
Result: > 1 µM

Others:
Task: So what's the measured IC50 for this one? O=c1[nH]cc(-c2cc(-c3cc(Cl)cc(OCC4CC4)c3)c(=O)n(-c3cccnc3)c2)c(=O)[nH]1
Result: 0.037 µM

Task: Record: Cc1cccc(COc2cc(Cl)cc(-c3cc(-c4c[nH]c(=O)[nH]c4=O)cn(-c4cccnc4)c3=O)c2)c1
Result: 0.11 µM

Task: # repeat for COc1cc(Cl)cc(-c2cc(-c3c[nH]c(=O)[nH]c3=O)cn(-c3cccnc3)c2=O)c1
Result: 1.2 µM

---

Test system: normal human bronchial epithelial cells (NHBE)
Test: Cellular cytotoxicity by MTT in normal human bronchial epithelial cells
Conditions: read-out: CC50 NHBE; MTT
observed_property: CC50 (µM)
Express it in µM; write the number only.

Example entries and their recorded answers appear below.
Task: Name the reported CC50 value associated with the molecule CCCOc1cc(Cl)cc(-c2cc(-c3ccccc3C#N)cn(-c3cccnc3)c2=O)c1 [Compound 13]
Result: 20

Task: Continue with N#Cc1ccccc1-c1cc(-c2cc(Cl)cc(OCCC(F)(F)F)c2)c(=O)n(-c2cccnc2)c1 [Compound 47]
Result: 25

Task: Same for O=c1[nH]cc(-c2cc(-c3cc(Cl)cc(OCc4ccccc4Cl)c3)c(=O)n(-c3cccnc3)c2)c(=O)[nH]1 [Compound 37]
Result: 2

Task: Please give the result for O=c1[nH]cc(-c2cc(-c3cc(Cl)c(F)c(OCc4ccccc4Cl)c3)c(=O)n(-c3cccnc3)c2)c(=O)[nH]1 [Compound 44] too.
Result: 3.5

Task: Same read-out for O=c1[nH]cc(-c2cc(-c3cc(Cl)cc(OCc4ccccc4)c3)c(=O)n(-c3cccnc3)c2)c(=O)[nH]1 [Compound 46] ?
Result: 17.5

Okay, now this molecule:
Task: Return reported CC50; argument: CCC(CC)COC(=O)[C@H](C)N[P@](=O)(OC[C@H]1O[C@@](C#N)(c2ccc3c(N)ncnn23)[C@H](O)[C@@H]1O)Oc1ccccc1 [remdesivir, reference compound]
Result: 41

---

Target: recombinant SARS-Cov-2 M^pro (Severe acute respiratory syndrome coronavirus 2 (2019-nCoV) (SARS-CoV-2), UniProt P0DTD1)
Assay: biochemical
Conditions: read-out: IC50
observed_property: IC50 (nM)
Give the value, in units of nM, as a plain number.

Example results:
Task: // returns reported IC50 for input N#Cc1ccccc1-c1cc(-c2cccc(Cl)c2)c(=O)n(-c2cccnc2)c1
Result: 10000

Task: Also O=c1[nH]cc(-c2cc(-c3cc(Cl)cc(OCc4ccccc4)c3)c(=O)n(-c3cccnc3)c2)c(=O)[nH]1 , if possible.
Result: 128

Task: Likewise for N#Cc1ccccc1-c1cc(-c2cc(Cl)cc(OCCc3ccccc3)c2)c(=O)n(-c2cccnc2)c1 ?
Result: 510

Task: Follow-up item: COc1cc(Cl)cc(-c2cc(-c3c[nH]c(=O)[nH]c3=O)cn(-c3cccnc3)c2=O)c1
Result: 1200

Task: # repeat for O=c1[nH]cc(-c2cc(-c3cc(Cl)cc(OCCc4ccccc4)c3)c(=O)n(-c3cccnc3)c2)c(=O)[nH]1
Result: 110

Task: Repeat with N#Cc1ccccc1-c1cc(-c2cc(Cl)cc(OCc3ccccc3)c2)c(=O)n(-c2cccnc2)c1
Result: 280

Let us examine a further case.
Task: Given O=c1[nH]cc(-c2cc(-c3cccc(Cl)c3)c(=O)n(-c3cccnc3)c2)c(=O)[nH]1 , state its recorded IC50.
Result: 6400

---

Target: recombinant SARS-Cov-2 M^pro (Severe acute respiratory syndrome coronavirus 2 (2019-nCoV) (SARS-CoV-2), UniProt P0DTD1)
Assay: biochemical
Conditions: IC50 (μM), inhibition of SARS-CoV-2 M^pro, Table 1; 100 nM M^pro, triplicate; perampanel: fluorescence of compound interfered with assay
observed_property: IC50

Task: Quick one: IC50 for N#Cc1ccccc1-c1cc(-c2ccccn2)cn(-c2ccccc2)c1=O [Perampanel, perampanel, reference compound] ?
Result: 100 to 250 µM

---

Molecular target: recombinant SARS-Cov-2 M^pro (Severe acute respiratory syndrome coronavirus 2 (2019-nCoV) (SARS-CoV-2), UniProt P0DTD1)
Assay: biochemical
Details: read-out: IC50 (μM), inhibition of SARS-CoV-2 M^pro; Table 1; 100 nM M^pro, triplicate; perampanel: fluorescence of compound interfered with assay
Listed next: entries and their corresponding IC50.
Numeric only. Scale: µM

Example cases with answers are listed next.
Task: // query IC50 value for entry Cc1ccccc1COc1cc(Cl)cc(-c2cc(-c3c[nH]c(=O)[nH]c3=O)cn(-c3cccnc3)c2=O)c1 [Compound 31]
Result: 0.1

Task: Entry to check: CCCCOc1cc(Cl)cc(-c2cc(-c3c[nH]c(=O)[nH]c3=O)cn(-c3cccnc3)c2=O)c1 [Compound 25]
Result: 0.25

Task: Again, but for COCCOc1cc(Cl)cc(-c2cc(-c3ccccc3C#N)cn(-c3cccnc3)c2=O)c1 [Compound 16]
Result: 0.47

Others:
Task: Which IC50 reading was recorded for the compound O=c1[nH]cc(-c2cc(-c3cc(Cl)cc(OCCc4ccccc4)c3)c(=O)n(-c3cccnc3)c2)c(=O)[nH]1 [Compound 29] ?
Result: 0.11

Task: Next: N#Cc1ccccc1-c1cc(-c2cc(Cl)cc(OCc3ccccc3)c2)c(=O)n(-c2cccnc2)c1 [Compound 14]
Result: 0.28
